test-method-notes: in vitro
run-conditions: human, MCF7 cells
Description: Cytotoxicity in human MCF7 cells assessed as maximum drug level not causing reduction in cell viability incubated for 6 days by acid red-52 staining based assay
measurement-label: MNTC at 144 h

given-smiles: FC(F)(F)c1ccc(-c2c3ccccc3nc3cc4ccc(C(F)(F)F)cc4cc23)cc1
measurement-label: MNTC at 144 h
experimental-value: > 10 µM
//
given-smiles: c1ccc2nc3ccccc3cc2c1
measurement-label: MNTC at 144 h
experimental-value: > 10 µM
//
given-smiles: N#Cc1c2ccccc2cc2c(-c3ccccc3)c3ccccc3nc12
measurement-label: MNTC at 144 h
experimental-value: > 100 µM
//
given-smiles: Cl.Oc1ccc2c(-c3ccccc3)c3cc4ccccc4cc3nc2c1
measurement-label: MNTC at 144 h
experimental-value: > 1 µM
//
given-smiles: Cl.c1ccc(-c2c3ccccc3nc3cc4ccccc4cc23)cc1
measurement-label: MNTC at 144 h
experimental-value: > 10 µM
//
given-smiles: Cl.Clc1c2ccccc2cc2c(-c3ccccc3)c3ccccc3nc12
measurement-label: MNTC at 144 h
experimental-value: > 10 µM
//
given-smiles: COc1ccc2cc3nc4ccccc4c(-c4ccccc4)c3cc2c1
measurement-label: MNTC at 144 h
experimental-value: > 10 µM

---

As an illustration, consider measured EC50 for molecules on Estrogen receptor (Homo sapiens, UniProt P03372).
Sequence (P03372 whole entry): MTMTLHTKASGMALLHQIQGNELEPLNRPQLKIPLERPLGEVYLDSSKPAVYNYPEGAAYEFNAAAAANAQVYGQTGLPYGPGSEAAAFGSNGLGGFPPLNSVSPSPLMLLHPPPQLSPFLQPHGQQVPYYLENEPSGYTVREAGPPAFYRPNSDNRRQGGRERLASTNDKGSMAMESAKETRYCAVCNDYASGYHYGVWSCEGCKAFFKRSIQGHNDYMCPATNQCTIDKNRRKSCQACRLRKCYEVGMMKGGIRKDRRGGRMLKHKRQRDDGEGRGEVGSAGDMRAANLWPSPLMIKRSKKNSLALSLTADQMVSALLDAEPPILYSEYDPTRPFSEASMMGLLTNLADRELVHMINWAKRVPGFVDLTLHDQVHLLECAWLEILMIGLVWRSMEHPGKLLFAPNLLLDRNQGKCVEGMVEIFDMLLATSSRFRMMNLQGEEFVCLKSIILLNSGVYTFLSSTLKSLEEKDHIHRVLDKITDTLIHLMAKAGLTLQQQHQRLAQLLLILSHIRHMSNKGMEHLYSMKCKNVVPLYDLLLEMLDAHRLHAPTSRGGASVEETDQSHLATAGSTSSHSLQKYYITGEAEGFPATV

given-smiles: Cl.Oc1cccc2c(-c3ccccc3)c3cc4ccccc4cc3nc12
study-target: Estrogen receptor (Homo sapiens, UniProt P03372)
EC50: 1330 nM
--
given-smiles: Cl.Oc1ccc2c(-c3ccccc3)c3cc4ccccc4cc3nc2c1
study-target: Estrogen receptor (Homo sapiens, UniProt P03372)
EC50: 7400 nM
--
given-smiles: Cl.Oc1ccc2cc3nc4ccccc4c(-c4ccccc4)c3cc2c1
study-target: Estrogen receptor (Homo sapiens, UniProt P03372)
EC50: 1440 nM

---

test-method-notes: in vitro
run-conditions: human, mcf7
Where a name gives a salt, the structure may show the parent alone.

compound: CC/C(=C(\c1ccccc1)c1ccc(OCCN(C)C)cc1)c1ccccc1 [TAMOXIFEN CITRATE]
MNTC at 144 h: > 10 µM

---

test-method-notes: in vitro
run-conditions: human, MCF7 cells
MNTC at 144 h overview

given-smiles: COc1ccc2c(-c3ccccc3)c3cc4ccccc4cc3nc2c1
MNTC at 144 h: > 1 µM

given-smiles: Cl.Oc1cccc2c(-c3ccccc3)c3cc4ccccc4cc3nc12
MNTC at 144 h: > 10 µM

given-smiles: Cl.Oc1ccc2cc3nc4ccccc4c(-c4ccccc4)c3cc2c1
MNTC at 144 h: > 10 µM

given-smiles: FC(F)(F)c1ccc2nc3cc4ccccc4cc3c(-c3ccccc3)c2c1
MNTC at 144 h: > 10 µM

given-smiles: COc1cccc2c(-c3ccccc3)c3cc4ccccc4cc3nc12
MNTC at 144 h: > 10 µM

given-smiles: c1ccc(-c2c3ccccc3nc3ccccc23)cc1
MNTC at 144 h: > 100 µM

---

test-method-notes: in vitro
run-conditions: human, MCF7 cells
Parameter: MNTC at 144 h. Scope: all listed entries.

given-smiles: FC(F)(F)c1ccc(-c2c3ccc(C(F)(F)F)cc3nc3cc4ccc(C(F)(F)F)cc4cc23)cc1
MNTC at 144 h: > 1 µM

given-smiles: Cl.FC(F)(F)c1cccc2c(-c3ccccc3)c3cc4ccccc4cc3nc12
MNTC at 144 h: > 10 µM

given-smiles: Cl.Clc1ccc2c(-c3ccccc3)c3cc4ccccc4cc3nc2c1
MNTC at 144 h: > 100 µM

given-smiles: COc1ccc2c(-c3ccc(C(F)(F)F)cc3)c3cc4cc(C(F)(F)F)ccc4cc3nc2c1
MNTC at 144 h: > 10 µM

given-smiles: Cl.FC(F)(F)c1ccc2cc3nc4ccccc4c(-c4ccccc4)c3cc2c1
MNTC at 144 h: > 10 µM
